The values you see were collected from ChEMBL document CHEMBL3259662.

Exercise: state measured selectivity ratio for each of the compounds provided.
Test: Selectivity index, ratio of cytotoxicity for human SKOV3 cells to IC50 for Cryptococcus neoformans ATCC 90113
Type: toxicity, cell-based, SK-OV-3
Conditions: read-out: Selectivity Index

Before answering, review these 2 worked examples.
COMPOUND SMILES | selectivity ratio
COC(=O)[C@H](CCCNC(=N)N)NC(=O)[C@H](Cc1c[nH]c(-c2ccc(OC)cc2)n1)NC(=O)[C@@H](N)CCCNC(=N)N | > 2.5
Cc1ccc(-c2nc(C[C@H](NC(=O)[C@@H](N)CCCNC(=N)N)C(=O)N[C@@H](CCCNC(=N)N)C(=O)NCc3ccccc3)c[nH]2)cc1 | > 28.6

Lab note: next compound to report on.
Quick one: selectivity ratio of `COC(=O)[C@H](CCCNC(=N)N)NC(=O)[C@H](Cc1c[nH]c(-c2ccc(OC)cc2)n1)NC(=O)[C@H](CCCNC(=N)N)NC(=O)OC(C)(C)C` ? > 2.5

----------
Exercise: state measured selectivity ratio for each of the compounds provided.
Experiment: Selectivity index, ratio of cytotoxicity for pig LLC-PK1 cells to IC50 for Cryptococcus neoformans ATCC 90113
Type: toxicity, cell-based
Conditions: read-out: Selectivity Index
Peptide text beside a SMILES is read from it. * marks the point of attachment. Boc = CC(C)(C)OC(=O)*; NHBn = c1ccc(CN*)cc1

Before answering, review these 4 worked examples.
COMPOUND | ASSAY ENDPOINT | EXPERIMENTAL RESULT
COC(=O)[C@H](CCCNC(=N)N)NC(=O)[C@H](Cc1c[nH]c(-c2ccc(-c3ccccc3)cc2)n1)NC(=O)[C@@H](N)CCCNC(=N)N | selectivity ratio | > 16.9
COc1ccc(-c2nc(C[C@H](NC(=O)[C@@H](N)CCCNC(=N)N)C(=O)N[C@@H](CCCNC(=N)N)C(=O)NCc3ccccc3)c[nH]2)cc1 | selectivity ratio | > 23.3
CC(C)(C)OC(=O)N[C@@H](CCCNC(=N)N)C(=O)N[C@@H](Cc1c[nH]c(-c2ccc(-c3ccccc3)cc2)n1)C(=O)N[C@@H](CCCNC(=N)N)C(=O)NCc1ccccc1 | selectivity ratio | > 50
CC(C)(C)OC(=O)N[C@@H](CCCNC(=N)N)C(=O)N[C@@H](Cc1c[nH]c(-c2ccc(C(C)(C)C)cc2)n1)C(=O)N[C@@H](CCCNC(=N)N)C(=O)NCc1ccccc1 | selectivity ratio | > 55.6

Record selectivity ratio per entry; entries follow.
1. COC(=O)[C@H](CCCNC(=N)N)NC(=O)[C@H](Cc1c[nH]c(-c2ccc(C)cc2)n1)NC(=O)[C@H](CCCNC(=N)N)NC(=O)OC(C)(C)C
2. Cc1ccc(-c2nc(C[C@H](NC(=O)[C@H](CCCNC(=N)N)NC(=O)OC(C)(C)C)C(=O)N[C@@H](CCCNC(=N)N)C(=O)NCc3ccccc3)c[nH]2)cc1
3. COc1ccc(-c2nc(C[C@H](NC(=O)[C@H](CCCNC(=N)N)NC(=O)OC(C)(C)C)C(=O)N[C@@H](CCCNC(=N)N)C(=O)NCc3ccccc3)c[nH]2)cc1
4. COC(=O)[C@H](CCCNC(=N)N)NC(=O)[C@H](Cc1c[nH]c(-c2ccc(OC)cc2)n1)NC(=O)[C@H](CCCNC(=N)N)NC(=O)OC(C)(C)C
5. COC(=O)[C@H](CCCNC(=N)N)NC(=O)[C@H](Cc1c[nH]c(-c2ccc(C(C)(C)C)cc2)n1)NC(=O)[C@@H](N)CCCNC(=N)N
6. CC(C)(C)OC(=O)N[C@@H](CCCNC(=N)N)C(=O)N[C@@H](Cc1c[nH]cn1)C(=O)N[C@@H](CCCNC(=N)N)C(=O)NCc1ccccc1 (Boc-Arg-His-Arg-NHBn)

1. > 1
2. > 4.6
3. > 14.7
4. > 2.5
5. > 16.3
6. > 1.8
